- Tested on: Malme-3M
- ASSAY PROTOCOL: NCI tumour cell line growth inhibition, 48 h
Activity calls are given as the source filed them. Rule as the data show it: active = GI50 up to about 1.1 µM and inactive = higher.
Outcome codes: true (1) = active, false (0) = inactive

>  <COMPOUND>
CC(=O)NC(Cc1ccsc1)C(=O)O (configuration not stated)

>  <ASSAY TARGET>
Malme-3M

>  <LABEL CLASS>
false (0)

$$$$
>  <COMPOUND>
Cc1cc(-c2ccccc2)nc(Nc2nc3ccccc3o2)n1

>  <ASSAY TARGET>
Malme-3M

>  <LABEL CLASS>
false (0)

$$$$
>  <COMPOUND>
[N-]=[N+]=Nc1cc(=O)[nH]c2ccccc12

>  <ASSAY TARGET>
Malme-3M

>  <LABEL CLASS>
false (0)

$$$$
>  <COMPOUND>
CC(=O)O[C@H]1CCC2[C@@H]3CC[C@]4(C)CC(=O)C=C[C@]4(C)C3CC[C@@]21C (some centres not stated)

>  <ASSAY TARGET>
Malme-3M

>  <LABEL CLASS>
false (0)

$$$$
>  <COMPOUND>
C/C(=N\NC(C)(C)C)c1sc(-c2nc(C)c(/C(C)=N/NC(C)(C)C)s2)nc1C

>  <ASSAY TARGET>
Malme-3M

>  <LABEL CLASS>
false (0)

$$$$
>  <COMPOUND>
[N-]=[N+]=Nc1c(Cc2ccccc2)c(Cl)nc2ccccc12

>  <ASSAY TARGET>
Malme-3M

>  <LABEL CLASS>
false (0)

$$$$
>  <COMPOUND>
CC(=O)NC(CCCNCc1ccccc1)C(=O)NCc1ccccc1 (configuration not stated)

>  <ASSAY TARGET>
Malme-3M

>  <LABEL CLASS>
false (0)

$$$$
>  <COMPOUND>
Cc1cnc(SCCN2CCN(C)CC2)nc1-c1cc2ccccc2s1

>  <ASSAY TARGET>
Malme-3M

>  <LABEL CLASS>
false (0)

$$$$
>  <COMPOUND>
N#Cc1cc([N+](=O)[O-])ccc1NC(=O)C(=O)Nc1n[nH]c(N)n1

>  <ASSAY TARGET>
Malme-3M

>  <LABEL CLASS>
false (0)

$$$$
>  <COMPOUND>
CS(=O)(=O)OCCCCOS(=O)(=O)CF

>  <ASSAY TARGET>
Malme-3M

>  <LABEL CLASS>
false (0)

$$$$
>  <COMPOUND>
O=C(CCc1ccc(O)cc1)NCCc1ccc(O)cc1

>  <ASSAY TARGET>
Malme-3M

>  <LABEL CLASS>
false (0)

$$$$
>  <COMPOUND>
Cc1ccc(S(=O)(=O)n2c(-c3ccccc3)c(-c3ccccc3)c3ccccc32)cc1

>  <ASSAY TARGET>
Malme-3M

>  <LABEL CLASS>
false (0)

$$$$
>  <COMPOUND>
O=c1cc(-c2ccccc2)[nH]c2c(Cl)cccc12

>  <ASSAY TARGET>
Malme-3M

>  <LABEL CLASS>
false (0)

$$$$
>  <COMPOUND>
COc1c(C)c(OC)c2c(c1O)[C@@H]1[C@@H]3Cc4c(OC)c(C)c(OC)c(O)c4[C@H](CNC(=O)c4ccc5ccccc5n4)N3[C@@H](C#N)[C@H](C2)N1C

>  <ASSAY TARGET>
Malme-3M

>  <LABEL CLASS>
true (1)

$$$$
>  <COMPOUND>
CN(c1c(Cl)cccc1Cl)S(=O)(=O)c1ccccc1[N+](=O)[O-]

>  <ASSAY TARGET>
Malme-3M

>  <LABEL CLASS>
false (0)

$$$$
>  <COMPOUND>
CO[C@]12C[C@@H](CNC(=O)c3cc(Br)c[nH]3)O[C@H]1NC(=O)N2

>  <ASSAY TARGET>
Malme-3M

>  <LABEL CLASS>
false (0)

$$$$
>  <COMPOUND>
C=CC1(C(=O)O)CCC(C(C)(C)C)CC1 (configuration not stated)

>  <ASSAY TARGET>
Malme-3M

>  <LABEL CLASS>
false (0)

$$$$
>  <COMPOUND>
CCOC(=O)c1c(-c2ccccc2)c(OC)cn1C

>  <ASSAY TARGET>
Malme-3M

>  <LABEL CLASS>
false (0)

$$$$
>  <COMPOUND>
Cc1ccc(/C=N/Nc2nncc3ccccc23)s1

>  <ASSAY TARGET>
Malme-3M

>  <LABEL CLASS>
false (0)

$$$$
>  <COMPOUND>
Cc1nn(CN2CCN(C)CC2)c(=S)n1/N=C/c1ccc(-c2ccc(Cl)cc2Cl)o1

>  <ASSAY TARGET>
Malme-3M

>  <LABEL CLASS>
false (0)

$$$$
>  <COMPOUND>
O=c1[nH]nc(Cc2ccc(Cl)cc2)n1Nc1ccccc1

>  <ASSAY TARGET>
Malme-3M

>  <LABEL CLASS>
false (0)

$$$$
>  <COMPOUND>
N/C(=N/c1ccc(O)cc1)S(=O)(=O)O

>  <ASSAY TARGET>
Malme-3M

>  <LABEL CLASS>
false (0)

$$$$

====

A collection of compounds and their measured GI50
- System: SN12C
- ASSAY PROTOCOL: NCI tumour cell line growth inhibition, 48 h
Activity calls are given as the source filed them. Cut-off read from the data, not from the text of the source: active = GI50 up to about 1.1 µM and inactive = higher.

>  <COMPOUND>
CCN(CC)c1ccc2cc(C(=O)Nc3ccc4[nH]c(C(=O)N5C[C@@H](CCl)c6c5cc(OC(=O)Nc5ccccc5)c5[nH]cc(C)c65)cc4c3)oc2c1

>  <GI50>
552 µM (inactive)

$$$$
>  <COMPOUND>
COC(=O)C(=O)C(C(=O)C(=O)Nc1ccc([N+](=O)[O-])cc1C#N)c1nc2ccc([N+](=O)[O-])cc2nc1O (stereo not drawn)

>  <GI50>
> 100 µM (inactive)

$$$$
>  <COMPOUND>
Cc1ccc(NC(=O)C(=O)Cc2nc3ccccc3o2)c(C)c1

>  <GI50>
> 100 µM (inactive)

$$$$
>  <COMPOUND>
Cc1ccc(S(=O)(=O)n2c(-c3ccccc3)c(-c3ccccc3)c3ccccc32)cc1

>  <GI50>
> 100 µM (inactive)

$$$$
>  <COMPOUND>
C[C@]12CCC3[C@@H](CC[C@@H]4c5nonc5CC[C@]34C)C1CC[C@@H]2O (stereo partly drawn)

>  <GI50>
22.1 µM (inactive)

$$$$
>  <COMPOUND>
CC1=C2C(=CO[C@H](C)[C@H]2C)C(O)=C(C(=O)O)C1=O

>  <GI50>
21.7 µM (inactive)

$$$$
>  <COMPOUND>
O=C1C=C(OCCCCl)C(=O)c2c(O)ccc(O)c21

>  <GI50>
0.35 µM (active)

$$$$
>  <COMPOUND>
N/C(=N\c1ccc(Cl)cc1)NS(=O)(=O)c1c(C(F)(F)F)cccc1C(F)(F)F

>  <GI50>
16.1 µM (inactive)

$$$$

====

- System: SF-539
- ASSAY PROTOCOL: NCI tumour cell line growth inhibition, 48 h
Calls of active or inactive are those of the source. Rule as the data show it: active = GI50 up to about 1.1 µM and inactive = higher.
A collection of compounds and their measured GI50

>  <COMPOUND>
CCCC(=O)c1c(NOC2OC(COC(C)=O)C(OC(C)=O)C(OC(C)=O)C2OC(C)=O)nc(OC)n(C)c1=O (stereo not given)

>  <GI50>
> 100 µM (inactive)

$$$$
>  <COMPOUND>
NCCN1C(=O)C2C3c4ccccc4C(c4ccccc43)C2C1=O (stereo not given)

>  <GI50>
> 100 µM (inactive)

$$$$
>  <COMPOUND>
CS(=O)(=O)c1nc(N)nc2nc[nH]c12

>  <GI50>
> 100 µM (inactive)

$$$$
>  <COMPOUND>
COC(=O)C12C3C4C5(C(=O)OC)C(C1C35C(=O)N(C(C)C)C(C)C)C42C(=O)N(C(C)C)C(C)C (stereo not given)

>  <GI50>
> 50 µM (inactive)

$$$$
>  <COMPOUND>
COc1cc(C(C#N)NNc2nc(C)cc(O)n2)cc(OC)c1OC (stereo not given)

>  <GI50>
> 100 µM (inactive)

$$$$
>  <COMPOUND>
CS(=O)(=O)OCCCCOS(=O)(=O)CF

>  <GI50>
> 100 µM (inactive)

$$$$
>  <COMPOUND>
COC(=O)C(CCCCCCCC(C(=O)OC)C1=Nc2nnc(N)n2C1=O)C1=Nc2nnc(N)n2C1=O (stereo not given)

>  <GI50>
84.3 µM (inactive)

$$$$
>  <COMPOUND>
NC(=O)/C(=N\NC(=O)C[n+]1ccccc1)C1NC(=O)NC1=O (stereo not given)

>  <GI50>
> 100 µM (inactive)

$$$$
>  <COMPOUND>
COC(=O)C(=O)C(C(=O)OC)C(=O)C(=O)Nc1cc(Cl)c(C)cc1S(=O)(=O)O (stereo not given)

>  <GI50>
> 100 µM (inactive)

$$$$
>  <COMPOUND>
COc1ccc(C(OCC2OC(n3ccc(NC(=O)c4ccccc4)nc3=O)C(O)C2O)(c2ccccc2)c2ccccc2)cc1 (stereo not given)

>  <GI50>
2.34 µM (inactive)

$$$$
